Provide the recorded melting point for the entries that follow.

For COC(=O)c1ccc(C(C)ON=C(C)c2c(C)cc(=O)n(O)c2O)cc1 (stereo not drawn) [Compound 34] , what is its reported melting point?
130 °C (dec.)

For CC(=NOC(CNC(=O)c1nccs1)c1cc(F)cc(F)c1)c1c(C)cc(=O)n(O)c1O (stereo not drawn) [Compound 50] , what is its reported melting point?
117 to 119 °C (dec.)

For COc1cccc(CON=C(C)c2c(C)cc(=O)n(O)c2O)c1 [Compound 35] , what is its reported melting point?
120 to 122 °C (dec.)

All figures here come from paper PMC11206691.
